Biological target: T1, His-tagged CEACAM1 (human, UniProt P13688 35-428)
T1 construct: 45 kDa SPR analyte; also called CEACAM1-HIS; CEACAM1 analyte
T1 sequence: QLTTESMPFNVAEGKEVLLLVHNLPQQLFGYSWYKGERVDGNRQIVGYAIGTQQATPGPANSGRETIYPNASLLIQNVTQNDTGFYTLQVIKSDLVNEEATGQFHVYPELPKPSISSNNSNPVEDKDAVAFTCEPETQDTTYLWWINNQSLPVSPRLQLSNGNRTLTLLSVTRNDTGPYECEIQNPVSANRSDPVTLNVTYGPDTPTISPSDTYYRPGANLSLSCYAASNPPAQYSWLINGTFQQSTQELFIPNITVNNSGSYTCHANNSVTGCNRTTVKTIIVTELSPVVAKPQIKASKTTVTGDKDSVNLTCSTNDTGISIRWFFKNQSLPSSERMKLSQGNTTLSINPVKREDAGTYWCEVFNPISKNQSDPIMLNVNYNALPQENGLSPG
Test: SPR single-cycle, supernatant IgG captured
Some binders, each annotated with its measured Kd.
Give your result in nM as a bare value.

Guide cases for Kd, answers given:
binder	reported.measurement
CP09B03/Vκ8 S29A (antibody, IgG4, V domains shown, IgG4 (S241P), kappa) VH: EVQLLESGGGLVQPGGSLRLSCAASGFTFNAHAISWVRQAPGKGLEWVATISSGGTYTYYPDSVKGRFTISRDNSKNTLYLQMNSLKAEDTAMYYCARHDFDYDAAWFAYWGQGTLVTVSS VL: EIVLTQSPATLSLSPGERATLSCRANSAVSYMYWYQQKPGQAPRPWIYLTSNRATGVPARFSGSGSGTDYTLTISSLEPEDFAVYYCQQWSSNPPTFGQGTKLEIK	300
CP09B03/CP08G09 (antibody, IgG4, V domains shown, IgG4 (S241P), kappa) VH: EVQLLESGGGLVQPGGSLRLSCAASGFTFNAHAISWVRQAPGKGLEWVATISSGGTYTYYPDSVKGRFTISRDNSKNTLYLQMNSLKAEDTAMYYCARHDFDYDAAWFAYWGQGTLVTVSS VL: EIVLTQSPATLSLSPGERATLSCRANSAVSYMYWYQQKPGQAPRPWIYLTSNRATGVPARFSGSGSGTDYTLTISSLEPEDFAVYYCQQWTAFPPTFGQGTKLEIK	300

Consider the additional binder presented here.
Input: // lookup Kd for CP09E05/CP08E05 (antibody, IgG4, V domains shown, IgG4 (S241P), kappa) VH: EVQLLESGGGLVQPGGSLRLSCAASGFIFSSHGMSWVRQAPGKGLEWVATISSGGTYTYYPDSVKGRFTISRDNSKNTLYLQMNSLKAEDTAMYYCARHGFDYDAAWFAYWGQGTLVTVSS VL: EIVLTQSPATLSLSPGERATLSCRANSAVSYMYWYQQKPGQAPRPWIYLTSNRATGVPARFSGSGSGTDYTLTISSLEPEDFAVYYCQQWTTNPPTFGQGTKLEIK
Output: 200
